experiment: Unbound brain concentration in P-gp knock out Sprague-Dawley rat at 5 mg/ml/kg, po measured upto 4 hrs by LC-MS analysis; conditions: in vivo
Label scheme for Fu: lower than 0.02 is NOT MET, 0.02 and above is MET.

Threshold query (Fu >= 0.02) on `CC(C)(C)NC(=O)[C@@H]1C[C@@H]2CCCC[C@@H]2CN1C[C@@H](O)[C@H](Cc1ccccc1)NC(=O)[C@H](CC(N)=O)NC(=O)c1ccc2ccccc2n1`
NOT MET

Check the entry `O=c1[nH]c2ccccc2n1CCCN1CCC(n2c(=O)[nH]c3cc(Cl)ccc32)CC1` : does Fu equal or exceed 0.02?
NOT MET

I'd appreciate it if you could say whether CCN(CC)CCNC(=O)c1cc(Cl)c(N)cc1OC [METOCLOPRAMIDE] has Fu at least equal to 0.02.
MET

New cases:
Has CC(C)N(CCC(C(N)=O)(c1ccccc1)c1ccccn1)C(C)C (stereo unspecified) [DISOPYRAMIDE] a recorded Fu greater than or equal to 0.02?
MET

Confirm if Fu reported for the molecule `COc1ccc2c(c1)c(CC(=O)O)c(C)n2C(=O)c1ccc(Cl)cc1` is 0.02 or above.
MET

Could you tell me if the measured Fu of COc1cc([C@@H]2c3cc4c(cc3[C@@H](O[C@@H]3O[C@@H]5CO[C@@H](C)O[C@H]5[C@H](O)[C@H]3O)[C@H]3COC(=O)[C@H]23)OCO4)cc(OC)c1O [ETOPOSIDE] reaches 0.02 or more?
MET

Say whether `Cc1nc2n(c(=O)c1CCN1CCC(c3noc4cc(F)ccc34)CC1)CCCC2` shows Fu of 0.02 or more.
MET

Check this molecule for Fu at or above 0.02: `Cc1nc(Nc2ncc(C(=O)Nc3c(C)cccc3Cl)s2)cc(N2CCN(CCO)CC2)n1.O`
NOT MET

---

Exercise: for every item that follows, state its recorded Kp uu.
experiment: Unbound brain-to-plasma concentration ratio in P-gp knock out Sprague-Dawley rat; conditions: brain
Numbers only.

Reference set, count: 3
Item COc1ccc(CCN2CCC(Nc3nc4ccccc4n3Cc3ccc(F)cc3)CC2)cc1 [ASTEMIZOLE] : provide Kp uu
0.577

Identify the reported Kp uu for the following entry. CC(C)N(CCC(C(N)=O)(c1ccccc1)c1ccccn1)C(C)C (centres undefined) [DISOPYRAMIDE]
0.036

Annotate the compound COc1cc([C@@H]2c3cc4c(cc3[C@@H](O[C@@H]3O[C@@H]5CO[C@@H](C)O[C@H]5[C@H](O)[C@H]3O)[C@H]3COC(=O)[C@H]23)OCO4)cc(OC)c1O [ETOPOSIDE] with its measured Kp uu.
0.024

Now look at this one.
State its Kp uu for this compound: `CC(C)(C)NC(=O)[C@@H]1C[C@@H]2CCCC[C@@H]2CN1C[C@@H](O)[C@H](Cc1ccccc1)NC(=O)[C@H](CC(N)=O)NC(=O)c1ccc2ccccc2n1`
0.014

---

experiment: Ratio of drug concentration in brain to plasma of P-gp knock out Sprague-Dawley rat; conditions: brain/plasma
# if measured Kp < 0.5: yes  # else: no

Completed entries (count: 4):
Below 0.5 on Kp? Entry C[C@@H](Oc1cc(-c2cnn(C3CCNCC3)c2)cnc1N)c1c(Cl)ccc(F)c1Cl [CRIZOTINIB]
no

Is Kp strictly under 0.5 for the entry CN1CC[C@H](c2c(O)cc(O)c3c(=O)cc(-c4ccccc4Cl)oc23)[C@H](O)C1 [ALVOCIDIB] ?
yes

Is it true that Kp reported for Cc1nc2n(c(=O)c1CCN1CCC(c3noc4cc(F)ccc34)CC1)CCCC2O (stereo not given) [PALIPERIDONE] is less than 0.5?
no

Is it true that Kp reported for CC[C@H](CO)Nc1nc(NCc2ccccc2)c2ncn(C(C)C)c2n1 [SELICICLIB] is less than 0.5?
no

Next up:
Quick check: Kp of COc1cc2nc(N3CCN(C(=O)c4ccco4)CC3)nc(N)c2cc1OC [PRAZOSIN] under 0.5?
yes
